SYSTEM NAME: JAK3: Recombinant human kinase domain (Homo sapiens, UniProt P52333)
Construct: JAK3: Recombinant human kinase domain from Millipore (Cat #14-629) or prepared
Sequence (P52333 822-1111 limits assumed): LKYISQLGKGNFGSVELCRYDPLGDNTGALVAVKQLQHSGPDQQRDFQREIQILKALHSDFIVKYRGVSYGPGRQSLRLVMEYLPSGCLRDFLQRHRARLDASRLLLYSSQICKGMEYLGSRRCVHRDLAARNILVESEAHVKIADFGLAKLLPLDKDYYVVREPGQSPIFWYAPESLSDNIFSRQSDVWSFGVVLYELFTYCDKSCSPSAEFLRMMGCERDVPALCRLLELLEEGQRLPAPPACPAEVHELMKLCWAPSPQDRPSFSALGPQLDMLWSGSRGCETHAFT
EXPERIMENTAL DETAILS: Determination of IC50 of Janus Kinase (JAK) inhibition, radioactive end-point 33P-ATP assay, JAK3
CONDITION INFO: ATP 1.5 uM, peptide 50 uM, 20 minutes, read-out: JAK3-INHIB-DR/v1~NO ADDITIVE~Enzyme_Conc = 100
ASSAY METRIC: IC50 (µM)

Worked examples follow.
COC[C@H](C)NC(=O)c1c[nH]c2ncc(-c3nn(Cc4cccnc4)c4cc(Cl)ccc34)nc12	0.00049
C[C@@H](NC(=O)c1c[nH]c2ncc(-c3ncn4cc(F)ccc34)nc12)c1ncco1	0.00231
CC(O)C(C)NC(=O)c1c[nH]c2ncc(-c3nn(C)c4cc(Cl)ccc34)nc12 (centres unmarked)	0.00465
Cn1nc(-c2cnc3[nH]cc(C(=O)NC4CCS(=O)(=O)C4)c3n2)c2ccc(Cl)cc21 (centres unmarked)	0.256

(P) C[C@@H](NC(=O)c1c[nH]c2ncc(-c3nn(C)c4cc(Cl)cc(Cl)c34)nc12)C(=O)N1CC(C#N)C1
(Q) Cn1nc(-c2cnc3[nH]cc(C(=O)N[C@@H]4CCCN(S(C)(=O)=O)C4)c3n2)c2ccc(Cl)cc21
Q: Given the listed records, identify the one among P and Q with higher IC50. Could you answer with the label of the item you picked?
A: P

(I) C[C@@H](NC(=O)c1c[nH]c2ncc(-c3nn(C)c4c3CCCC4)nc12)C(=O)N1CC(C#N)C1
(II) Cn1nc(-c2cnc3[nH]cc(C(=O)N[C@@H]4CCN(CC#N)C4)c3n2)c2ccc(F)cc21
Q: Given the listed records, identify the one among I and II with higher IC50. Could you answer with the label of the item you picked?
A: II
(II: 0.0273 µM, I: 0.0057 µM)
